- tested.target: UniProtKB P11309
- Sequence (P11309 whole entry): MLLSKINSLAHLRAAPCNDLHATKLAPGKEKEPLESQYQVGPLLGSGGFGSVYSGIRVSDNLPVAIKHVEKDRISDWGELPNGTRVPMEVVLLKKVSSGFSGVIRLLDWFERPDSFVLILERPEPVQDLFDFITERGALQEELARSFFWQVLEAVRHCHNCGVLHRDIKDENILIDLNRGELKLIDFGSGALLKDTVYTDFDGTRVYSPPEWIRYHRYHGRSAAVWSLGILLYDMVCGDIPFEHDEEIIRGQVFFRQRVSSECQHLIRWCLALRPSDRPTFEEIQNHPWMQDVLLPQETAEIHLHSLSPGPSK
- assay.name: Further analysis of a plurality of inhibitors and a plurality of kinases on microarray (Example IX, Table 5);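 as to Inhibition level, PIM1: level 0 no or unclear inhibition to Level 2 substantial inhibition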
- Type: biochemical
- experimental.parameters: plate C2; inhibitor 100 uM
Please go through the items and note down their Inhibition level, PIM1.
Numbers only.

[[record]]
compound = "CC(=O)c1c(O)c(C)c(O)c(Cc2c(O)c3c(c(C(=O)/C=C/c4ccccc4)c2O)OC(C)(C)C=C3)c1O [Rottlerin (Mallotoxin)]"
result = 2

[[record]]
compound = "COc1cc2ncnc(Nc3cccc(Cl)c3)c2cc1OC [AG 1478]"
result = 1

[[record]]
compound = "O=S(=O)(NCCNC/C=C/c1ccc(Br)cc1)c1cccc2cnccc12 [H-89]"
result = 2

[[record]]
compound = "N#C/C(=C/c1ccc(O)c(O)c1)C(=O)NCc1ccccc1 [AG 490]"
result = 2

[[record]]
compound = "Cn1cc(C2=C(c3cn(CCCSC(=N)N)c4ccccc34)C(=O)NC2=O)c2ccccc21 [Ro-31-8220]"
result = 0


For each of the items listed, what is its Inhibition level, PIM1?
1. CC(C)(C)n1nc(-c2ccc(Cl)cc2)c2c(N)ncnc21 [PP2]
2. O=c1c(-c2ccc(O)cc2)coc2cc(O)cc(O)c12 [Genistein]

[2, 2]

---

- tested.target: plurality of kinases (Table 5) (Homo sapiens, UniProt O14965)
- Sequence (O14965 whole entry): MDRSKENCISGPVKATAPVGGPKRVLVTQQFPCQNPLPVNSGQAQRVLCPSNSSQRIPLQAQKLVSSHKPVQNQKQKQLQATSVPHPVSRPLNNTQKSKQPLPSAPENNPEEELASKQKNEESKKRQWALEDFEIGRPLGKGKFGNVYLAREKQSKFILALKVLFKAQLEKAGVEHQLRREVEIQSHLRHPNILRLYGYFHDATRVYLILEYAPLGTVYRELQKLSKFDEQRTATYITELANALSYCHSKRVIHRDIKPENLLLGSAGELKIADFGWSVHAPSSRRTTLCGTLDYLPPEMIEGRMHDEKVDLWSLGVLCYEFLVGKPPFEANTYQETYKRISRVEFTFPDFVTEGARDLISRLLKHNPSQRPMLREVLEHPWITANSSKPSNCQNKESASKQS
- assay.name: Further analysis of a plurality of inhibitors and a plurality of kinases on microarray (Example IX, Table 5);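 as to Inhibition level, STK6: level 0 no or unclear inhibition to Level 2 substantial inhibition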
- Type: biochemical
- experimental.parameters: plate C6; inhibitor 100 uM
quantity.kind: Inhibition level, STK6
Numbers only.

[[record]]
smiles_structure = "O=S(=O)(NCCNC/C=C/c1ccc(Br)cc1)c1cccc2cnccc12"
result = 0


For each of the items listed, what is its Inhibition level, STK6?
1. CC(=O)c1c(O)c(C)c(O)c(Cc2c(O)c3c(c(C(=O)/C=C/c4ccccc4)c2O)OC(C)(C)C=C3)c1O
2. COc1cc2ncnc(Nc3cccc(Cl)c3)c2cc1OC
3. CC(C)(C)n1nc(-c2ccc(Cl)cc2)c2c(N)ncnc21
4. O=c1c(-c2ccc(O)cc2)coc2cc(O)cc(O)c12

[2, 0, 2, 2]

For each of the items listed, what is its Inhibition level, STK6?
1. Cn1cc(C2=C(c3cn(CCCSC(=N)N)c4ccccc34)C(=O)NC2=O)c2ccccc21
2. N#C/C(=C/c1ccc(O)c(O)c1)C(=O)NCc1ccccc1

[2, 2]

---

- tested.target: UniProt:P45985
- Sequence (P45985 whole entry): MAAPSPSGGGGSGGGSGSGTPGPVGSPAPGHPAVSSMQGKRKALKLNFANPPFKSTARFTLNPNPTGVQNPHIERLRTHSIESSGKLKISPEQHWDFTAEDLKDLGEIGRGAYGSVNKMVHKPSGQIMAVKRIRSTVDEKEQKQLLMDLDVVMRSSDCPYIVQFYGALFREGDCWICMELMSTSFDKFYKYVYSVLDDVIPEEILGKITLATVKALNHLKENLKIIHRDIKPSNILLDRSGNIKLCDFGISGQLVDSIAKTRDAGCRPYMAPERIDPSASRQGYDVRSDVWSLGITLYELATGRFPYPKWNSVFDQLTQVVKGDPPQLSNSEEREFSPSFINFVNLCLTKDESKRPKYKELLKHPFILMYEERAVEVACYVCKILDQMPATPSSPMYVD
- assay.name: Further analysis of a plurality of inhibitors and a plurality of kinases on microarray (Example IX, Table 5);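 as to Inhibition level, MAP2K4: level 0 none or unclear Level 1 marginal Level 2 substantial inhibition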
- Type: biochemical
- experimental.parameters: plate E6; inhibitor 100 uM
quantity.kind: Inhibition level, MAP2K4
Numbers only.

Consider the following illustrative entries.
[[record]]
smiles_structure = "Cn1cc(C2=C(c3cn(CCCSC(=N)N)c4ccccc34)C(=O)NC2=O)c2ccccc21"
result = 1

[[record]]
smiles_structure = "O=c1c(-c2ccc(O)cc2)coc2cc(O)cc(O)c12"
result = 2


# ---- query molecule ----
I'd like to know its Inhibition level, MAP2K4. The molecule in question is O=c1c(O)c(-c2ccc(O)c(O)c2)oc2cc(O)cc(O)c12
0

---

- tested.target: plurality of kinases (Table 5) (Homo sapiens, UniProt P51813)
- Sequence (P51813 whole entry): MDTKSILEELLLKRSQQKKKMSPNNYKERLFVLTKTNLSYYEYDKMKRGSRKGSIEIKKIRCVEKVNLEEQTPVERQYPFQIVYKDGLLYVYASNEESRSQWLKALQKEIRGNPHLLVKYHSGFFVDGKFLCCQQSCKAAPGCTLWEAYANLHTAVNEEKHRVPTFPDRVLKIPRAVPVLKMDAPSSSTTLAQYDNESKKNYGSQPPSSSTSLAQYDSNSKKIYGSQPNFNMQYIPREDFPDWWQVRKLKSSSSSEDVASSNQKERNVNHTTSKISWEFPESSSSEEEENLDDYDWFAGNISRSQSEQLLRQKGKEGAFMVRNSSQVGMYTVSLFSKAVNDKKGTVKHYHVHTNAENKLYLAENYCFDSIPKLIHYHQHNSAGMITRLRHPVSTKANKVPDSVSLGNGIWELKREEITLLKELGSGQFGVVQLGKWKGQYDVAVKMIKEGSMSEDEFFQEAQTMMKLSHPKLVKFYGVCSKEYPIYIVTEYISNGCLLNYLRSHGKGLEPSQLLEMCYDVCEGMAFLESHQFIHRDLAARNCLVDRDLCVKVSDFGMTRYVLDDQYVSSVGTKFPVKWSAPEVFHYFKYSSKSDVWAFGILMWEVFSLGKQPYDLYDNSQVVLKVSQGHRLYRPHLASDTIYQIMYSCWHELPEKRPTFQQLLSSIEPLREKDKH
- assay.name: Further analysis of a plurality of inhibitors and a plurality of kinases on microarray (Example IX, Table 5)
- Format: biochemical
- experimental.parameters: plate B12; inhibitor 100 uM
quantity.kind: Inhibition level, BMX

Consider the following illustrative entries.
[[record]]
compound = "O=c1c(-c2ccc(O)cc2)coc2cc(O)cc(O)c12 [Genistein]"
tested_target = "plurality of kinases (Table 5) (Homo sapiens, UniProt P51813)"
quantity_kind = "Inhibition level, BMX"
result = 0

[[record]]
compound = "CC(C)(C)n1nc(-c2ccc(Cl)cc2)c2c(N)ncnc21 [PP2]"
tested_target = "plurality of kinases (Table 5) (Homo sapiens, UniProt P51813)"
quantity_kind = "Inhibition level, BMX"
result = 2

[[record]]
compound = "O=c1c(O)c(-c2ccc(O)c(O)c2)oc2cc(O)cc(O)c12 [Quercetin]"
tested_target = "plurality of kinases (Table 5) (Homo sapiens, UniProt P51813)"
quantity_kind = "Inhibition level, BMX"
result = 0

[[record]]
compound = "CC(=O)c1c(O)c(C)c(O)c(Cc2c(O)c3c(c(C(=O)/C=C/c4ccccc4)c2O)OC(C)(C)C=C3)c1O [Rottlerin (Mallotoxin)]"
tested_target = "plurality of kinases (Table 5) (Homo sapiens, UniProt P51813)"
quantity_kind = "Inhibition level, BMX"
result = 1

[[record]]
compound = "Cn1cc(C2=C(c3cn(CCCSC(=N)N)c4ccccc34)C(=O)NC2=O)c2ccccc21 [Ro-31-8220]"
tested_target = "plurality of kinases (Table 5) (Homo sapiens, UniProt P51813)"
quantity_kind = "Inhibition level, BMX"
result = 2


For each of the items listed, what is its Inhibition level, BMX?
1. N#C/C(=C/c1ccc(O)c(O)c1)C(=O)NCc1ccccc1 [AG 490]
2. COc1cc2ncnc(Nc3cccc(Cl)c3)c2cc1OC [AG 1478]
3. O=S(=O)(NCCNC/C=C/c1ccc(Br)cc1)c1cccc2cnccc12 [H-89]

1. 0
2. 1
3. 1

---

- tested.target: plurality of kinases (Table 5) (Homo sapiens)
- assay.name: Further analysis of a plurality of inhibitors and a plurality of kinases on microarray (Example IX, Table 5)
- Assay type: biochemical
- experimental.parameters: plate B6; inhibitor 100 uM
quantity.kind: Inhibition level, ABL1
Give bare numbers.

For each of the items listed, what is its Inhibition level, ABL1?
1. CC(=O)c1c(O)c(C)c(O)c(Cc2c(O)c3c(c(C(=O)/C=C/c4ccccc4)c2O)OC(C)(C)C=C3)c1O
2. O=S(=O)(NCCNC/C=C/c1ccc(Br)cc1)c1cccc2cnccc12
3. O=c1c(-c2ccc(O)cc2)coc2cc(O)cc(O)c12
4. COc1cc2ncnc(Nc3cccc(Cl)c3)c2cc1OC
5. Cn1cc(C2=C(c3cn(CCCSC(=N)N)c4ccccc34)C(=O)NC2=O)c2ccccc21

1. 0
2. 0
3. 0
4. 1
5. 2

I'd like to know its Inhibition level, ABL1. The compound in question is N#C/C(=C/c1ccc(O)c(O)c1)C(=O)NCc1ccccc1
0

---

- tested.target: plurality of kinases (Table 5) (Homo sapiens, UniProt Q08881)
- Sequence (Q08881 whole entry): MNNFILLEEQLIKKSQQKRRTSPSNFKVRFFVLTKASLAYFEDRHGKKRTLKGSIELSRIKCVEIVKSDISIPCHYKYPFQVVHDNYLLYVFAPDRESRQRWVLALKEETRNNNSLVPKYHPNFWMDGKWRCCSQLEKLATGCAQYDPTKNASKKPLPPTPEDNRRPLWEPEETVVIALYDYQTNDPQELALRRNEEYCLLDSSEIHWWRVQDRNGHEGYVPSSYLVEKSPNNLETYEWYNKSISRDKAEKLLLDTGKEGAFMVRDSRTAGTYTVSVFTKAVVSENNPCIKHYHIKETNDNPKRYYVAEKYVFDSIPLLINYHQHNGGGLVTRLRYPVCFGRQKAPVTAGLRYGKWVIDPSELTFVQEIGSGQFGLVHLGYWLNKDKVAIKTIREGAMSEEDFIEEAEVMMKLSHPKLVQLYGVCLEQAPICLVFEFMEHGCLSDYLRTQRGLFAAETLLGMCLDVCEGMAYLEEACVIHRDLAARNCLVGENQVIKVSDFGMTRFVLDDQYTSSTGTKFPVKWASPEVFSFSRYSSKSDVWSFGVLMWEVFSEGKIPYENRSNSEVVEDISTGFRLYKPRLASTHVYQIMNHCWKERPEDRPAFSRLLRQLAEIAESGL
- assay.name: Further analysis of a plurality of inhibitors and a plurality of kinases on microarray (Example IX, Table 5);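 as to Inhibition level, ITK: level 0 none or unclear then 1 little or marginal then 2 substantial inhibition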
- Assay type: biochemical
- experimental.parameters: plate E4; inhibitor 100 uM
Please go through the items and note down their Inhibition level, ITK.
Give bare numbers.

Consider the following illustrative entries.
[[record]]
compound = "COc1cc2ncnc(Nc3cccc(Cl)c3)c2cc1OC [AG 1478]"
result = 1

[[record]]
compound = "CC(=O)c1c(O)c(C)c(O)c(Cc2c(O)c3c(c(C(=O)/C=C/c4ccccc4)c2O)OC(C)(C)C=C3)c1O [Rottlerin (Mallotoxin)]"
result = 1

[[record]]
compound = "CC(C)(C)n1nc(-c2ccc(Cl)cc2)c2c(N)ncnc21 [PP2]"
result = 2

[[record]]
compound = "N#C/C(=C/c1ccc(O)c(O)c1)C(=O)NCc1ccccc1 [AG 490]"
result = 1

[[record]]
compound = "O=c1c(O)c(-c2ccc(O)c(O)c2)oc2cc(O)cc(O)c12 [Quercetin]"
result = 0

[[record]]
compound = "Cn1cc(C2=C(c3cn(CCCSC(=N)N)c4ccccc34)C(=O)NC2=O)c2ccccc21 [Ro-31-8220]"
result = 2

[[record]]
compound = "O=c1c(-c2ccc(O)cc2)coc2cc(O)cc(O)c12 [Genistein]"
result = 2


# ---- query compound ----
I'd like to know its Inhibition level, ITK. The compound in question is O=S(=O)(NCCNC/C=C/c1ccc(Br)cc1)c1cccc2cnccc12 [H-89]
1

---

Please go through the items and note down their Inhibition level, PTK2B.
- tested.target: plurality of kinases (Table 5) (Homo sapiens, UniProt Q14289)
- Sequence (Q14289 whole entry): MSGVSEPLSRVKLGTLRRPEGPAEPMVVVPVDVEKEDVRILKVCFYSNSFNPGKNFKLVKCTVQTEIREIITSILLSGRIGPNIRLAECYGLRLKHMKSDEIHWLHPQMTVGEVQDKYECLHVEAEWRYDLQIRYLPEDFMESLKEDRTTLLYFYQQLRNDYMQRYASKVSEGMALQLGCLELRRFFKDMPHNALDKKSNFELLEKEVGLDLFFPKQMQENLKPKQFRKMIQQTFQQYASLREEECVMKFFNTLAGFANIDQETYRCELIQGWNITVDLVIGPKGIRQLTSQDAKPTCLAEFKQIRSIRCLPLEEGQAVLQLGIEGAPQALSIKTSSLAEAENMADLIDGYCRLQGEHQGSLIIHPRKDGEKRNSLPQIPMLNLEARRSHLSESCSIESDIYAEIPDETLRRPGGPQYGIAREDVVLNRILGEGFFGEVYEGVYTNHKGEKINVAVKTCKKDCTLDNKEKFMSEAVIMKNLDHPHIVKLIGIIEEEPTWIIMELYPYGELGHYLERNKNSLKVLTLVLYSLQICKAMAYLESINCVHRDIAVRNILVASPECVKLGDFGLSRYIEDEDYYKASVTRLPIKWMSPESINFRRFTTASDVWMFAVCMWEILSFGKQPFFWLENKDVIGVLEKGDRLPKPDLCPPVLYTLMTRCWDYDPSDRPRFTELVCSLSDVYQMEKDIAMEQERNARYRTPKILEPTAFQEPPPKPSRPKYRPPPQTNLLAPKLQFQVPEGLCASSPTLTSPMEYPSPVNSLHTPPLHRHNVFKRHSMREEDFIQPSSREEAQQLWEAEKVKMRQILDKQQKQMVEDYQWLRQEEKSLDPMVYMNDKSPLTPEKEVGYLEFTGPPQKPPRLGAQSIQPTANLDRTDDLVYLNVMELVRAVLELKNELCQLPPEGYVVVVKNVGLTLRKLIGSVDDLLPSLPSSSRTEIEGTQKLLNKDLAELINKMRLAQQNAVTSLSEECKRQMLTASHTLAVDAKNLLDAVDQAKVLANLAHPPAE
- assay.name: Further analysis of a plurality of inhibitors and a plurality of kinases on microarray (Example IX, Table 5);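 also: inhibition of each kinase by the inhibitors is given as a qualitative level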;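 as to Inhibition level, PTK2B: level 0 no or unclear inhibition to Level 2 substantial inhibition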
- Type: biochemical
- experimental.parameters: plate G5; inhibitor 100 uM
Give bare numbers.

Consider the following illustrative entries.
[[record]]
smiles_structure = "COc1cc2ncnc(Nc3cccc(Cl)c3)c2cc1OC"
tested_target = "plurality of kinases (Table 5) (Homo sapiens, UniProt Q14289)"
result = 2

[[record]]
smiles_structure = "CC(=O)c1c(O)c(C)c(O)c(Cc2c(O)c3c(c(C(=O)/C=C/c4ccccc4)c2O)OC(C)(C)C=C3)c1O"
tested_target = "plurality of kinases (Table 5) (Homo sapiens, UniProt Q14289)"
result = 2

[[record]]
smiles_structure = "N#C/C(=C/c1ccc(O)c(O)c1)C(=O)NCc1ccccc1"
tested_target = "plurality of kinases (Table 5) (Homo sapiens, UniProt Q14289)"
result = 2

[[record]]
smiles_structure = "O=S(=O)(NCCNC/C=C/c1ccc(Br)cc1)c1cccc2cnccc12"
tested_target = "plurality of kinases (Table 5) (Homo sapiens, UniProt Q14289)"
result = 1

[[record]]
smiles_structure = "CC(C)(C)n1nc(-c2ccc(Cl)cc2)c2c(N)ncnc21"
tested_target = "plurality of kinases (Table 5) (Homo sapiens, UniProt Q14289)"
result = 2

[[record]]
smiles_structure = "Cn1cc(C2=C(c3cn(CCCSC(=N)N)c4ccccc34)C(=O)NC2=O)c2ccccc21"
tested_target = "plurality of kinases (Table 5) (Homo sapiens, UniProt Q14289)"
result = 2

[[record]]
smiles_structure = "O=c1c(-c2ccc(O)cc2)coc2cc(O)cc(O)c12"
tested_target = "plurality of kinases (Table 5) (Homo sapiens, UniProt Q14289)"
result = 2


# ---- query compound ----
I'd like to know its Inhibition level, PTK2B. The compound in question is O=c1c(O)c(-c2ccc(O)c(O)c2)oc2cc(O)cc(O)c12
1

Reference source for all entries: patent US7635572B2
